Test system: MDA-MB-436
procedureDetails: normalised viability (% of control), CellTiter-Blue; higher = more viable cells (about 100 = DMSO control)
measurementSetup: 10 nM; incubation time: 72 h
readoutName: normalised viability

// below: answered compounds
1) CO[C@@H](C(=O)N1Cc2[nH]nc(NC(=O)c3ccc(N4CCN(C)CC4)cc3)c2C1)c1ccccc1 [Danusertib] : 89.7%
2) Cc1ccc(Nc2nccc(N(C)c3ccc4c(C)n(C)nc4c3)n2)cc1S(N)(=O)=O [Pazopanib] : 97.5%
3) Cc1c(CN2CCN(C(=O)[C@H](C)O)CC2)sc2c(N3CCOCC3)nc(-c3cnc(N)nc3)nc12 [GDC-0980] : 81.2%

Tell me measured normalised viability for "COc1ccc(-c2cc3c(C)nc(N)nc3n([C@H]3CC[C@H](OCCO)CC3)c2=O)cn1" please.
103%

Identify normalised viability associated with the compound C[C@]12C=CC(=O)C=C1CC[C@@H]1[C@@H]2[C@@H](O)C[C@@]2(C)[C@H]1CC[C@]2(O)C(=O)CO [Prednisolone]
82.4%
